src = paper PMC7312386

Listed molecules paired with reported log10 of Ki
# TARGET ENTITY: CynT2 (Escherichia coli, UniProt P61517)
# Construct: gene can; oligomer not determined (dimer or tetramer stated for bacterial beta-CAs in general)
# Sequence (P61517 whole entry): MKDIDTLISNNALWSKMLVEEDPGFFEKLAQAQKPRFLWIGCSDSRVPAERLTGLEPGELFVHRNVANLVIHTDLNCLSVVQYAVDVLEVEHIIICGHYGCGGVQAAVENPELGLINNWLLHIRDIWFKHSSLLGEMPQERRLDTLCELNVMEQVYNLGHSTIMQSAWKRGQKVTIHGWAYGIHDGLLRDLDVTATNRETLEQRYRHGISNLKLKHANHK
# TEST NAME: stopped-flow CO2 hydrase assay, phenol red
# Format: biochemical
# RECORDED CONDITIONS: read-out: KI *(nM) / CynT2
REPORTED ENDPOINT: log10 of Ki (log10 of the value in nM)

[
  {
    "MOLECULE": "Nc1nccc(Nc2ccc(S(N)(=O)=O)cc2)n1 [compound 19, 19]",
    "log10 of Ki": 2.62
  },
  {
    "MOLECULE": "CCN[C@H]1CN(CCCOC)S(=O)(=O)c2sc(S(N)(=O)=O)cc21 [BRZ, Brinzolamide]",
    "log10 of Ki": 3.31
  },
  {
    "MOLECULE": "Cc1ccc(-c2cc(C(F)(F)F)nn2-c2ccc(S(N)(=O)=O)cc2)cc1 [CLX, Celecoxib]",
    "log10 of Ki": 3.28
  },
  {
    "MOLECULE": "O=C1NS(=O)(=O)c2ccccc21 [SAC, Saccharin]",
    "log10 of Ki": 3.83
  },
  {
    "MOLECULE": "CC(=O)N=c1sc(S(N)(=O)=O)nn1C [MZA, Methazolamide]",
    "log10 of Ki": 2.68
  },
  {
    "MOLECULE": "NS(=O)(=O)c1ccc(CO)cc1 [compound 16, 16]",
    "log10 of Ki": 3.37
  },
  {
    "MOLECULE": "Nc1ccc(S(=O)(=O)Nc2nnc(S(N)(=O)=O)s2)cc1 [compound 20, 20]",
    "log10 of Ki": 2.86
  },
  {
    "MOLECULE": "Nc1cc(C(F)(F)F)c(S(N)(=O)=O)cc1S(N)(=O)=O [compound 11, 11]",
    "log10 of Ki": 3.80
  },
  {
    "MOLECULE": "Nc1ccc(S(=O)(=O)Nc2ccc(S(N)(=O)=O)cc2)cc1 [compound 22, 22]",
    "log10 of Ki": 1.97
  },
  {
    "MOLECULE": "NS(=O)(=O)c1ccc(O)cc1 [compound 15, 15]",
    "log10 of Ki": 3.81
  },
  {
    "MOLECULE": "Nc1ccc(S(=O)(=O)NCc2ccc(S(N)(=O)=O)cc2)cc1 [compound 23, 23]",
    "log10 of Ki": 2.51
  },
  {
    "MOLECULE": "Nc1cccc(S(N)(=O)=O)c1 [compound 1, 1]",
    "log10 of Ki": 2.85
  }
]
